Listing of entries alongside the reported Population Tubulin-Different-Phenotype (%).
Test system: Fibroblast
Experiment: Multiplex assay against human fibroblast
Assay type: toxicity, cell-based
Details: 12 h, 1 µM, compound concentration 1 uM, replicate 1
Metric name: Population Tubulin-Different-Phenotype (%)

Molecule | Obs value
Nc1nc(CC(=O)Nc2ccc(CCNC[C@H](O)c3ccccc3)cc2)cs1 | 25%
C=CCN1C[C@H](C(=O)N(CCCN(C)C)C(=O)NCC)C[C@@H]2c3cccc4[nH]cc(c34)C[C@H]21 | 26%
CCC(=O)OCC(=O)[C@@]1(OC(=O)CC)[C@@H](C)C[C@H]2[C@@H]3CCC4=CC(=O)C=C[C@]4(C)[C@@]3(Cl)[C@@H](O)C[C@@]21C [BECLOMETHASONE DIPROPIONATE] | 47%
Cc1cc(=O)n(C)c2cc(N3C(=O)CC[C@H](NS(=O)(=O)CC(C)C)[C@H]3c3ccc(Cl)cc3)ccc12 | 34%
CN(C)C(=O)Cn1cc(-c2ccc(-c3nnc4ccccn34)cc2)cn1 | 22%
Cc1cc(-c2ccc3c(c2)CC[C@H]3N2CC3(CCN(C(=O)Cc4cn5cc(C)sc5n4)CC3)C2)ncn1 | 24%
COc1c(Nc2ccc(S(C)(=O)=O)nc2C)ncnc1OC1CCN(C(=O)OC(C)C)CC1 | 34%
